Taken from ChEMBL document CHEMBL5528085.

assay-target: Adenosine receptor A2b (Homo sapiens, UniProt P29275)
measurement-protocol: Antagonist activity at human adenosine 2B receptor overexpressed in HEK293 cells preincubated for 0.5 hrs followed by NECA stimulation by GloSensor cAMP assay
Type: functional, cell-based
recorded-metric: pIC50
A value of pIC50 is the negative decimal logarithm of a concentration given in moles per litre.

// known answers, use as guide
Cc1c(C#N)cccc1-c1cc(-c2cn(Cc3c[nH]c4ccc(OC(C)C)cc34)nn2)nc(N)n1 6.99
Cc1c(C#N)cccc1-c1cc(-c2cn(Cc3c[nH]c4ccncc34)nn2)nc(N)n1 7.94
Cc1c(C#N)cccc1-c1cc(-c2cn(Cc3c[nH]c4cc(S(C)(=O)=O)ccc34)nn2)nc(N)n1 8.47

Now consider the entry below.
Measured pIC50 of Cc1c(C#N)cccc1-c1cc(-c2cn(Cc3c[nH]c4cc(OC5CCCC5)ccc34)nn2)nc(N)n1 : 7.15

----------
assay-target: Adenosine receptor A2b (Homo sapiens)
measurement-protocol: Antagonist activity at human adenosine 2B receptor overexpressed in HEK293 cells preincubated for 0.5 hrs followed by NECA stimulation by GloSensor cAMP assay
Type: functional, cell-based
pIC50: −log10 of the molar value.
Entry flag: yes (1) if pIC50 reaches 7; no (0) if it does not.

Record excerpt, results attached:
Cc1c(C#N)cccc1-c1cc(-c2cn(Cc3c[nH]c4cc(C#N)ccc34)nn2)nc(N)n1 yes (1)
Cc1c(C#N)cccc1-c1cc(-c2cn(Cc3c[nH]c4c(Cl)cccc34)nn2)nc(N)n1 no (0)
Cc1c(C#N)cccc1-c1cc(-c2cn(Cc3c[nH]c4ccc(C#N)cc34)nn2)nc(N)n1 yes (1)
Cc1c(C#N)cccc1-c1cc(-c2cn(Cc3c[nH]c4cc(OC(C)C)ccc34)nn2)nc(N)n1 yes (1)
Cc1c(C#N)cccc1-c1cc(-c2cn(Cc3ccc4[nH]ccc4c3)nn2)nc(N)n1 yes (1)
Cc1c(C#N)cccc1-c1cc(-c2cn(Cc3c[nH]c4cc(Cl)c(Cl)cc34)nn2)nc(N)n1 no (0)
COC(=O)c1ccc2[nH]cc(Cn3cc(-c4cc(-c5cccc(C#N)c5C)nc(N)n4)nn3)c2c1 yes (1)
Cc1ccc2[nH]cc(Cn3cc(-c4cc(-c5cccc(C#N)c5C)nc(N)n4)nn3)c2c1 yes (1)

Reported pIC50 reaches at least 7 for Cc1c(C#N)cccc1-c1cc(-c2cn(Cc3c[nH]c4ccc(S(C)(=O)=O)cc34)nn2)nc(N)n1 ?
yes (1)

Reported pIC50 reaches at least 7 for Cc1c(C#N)cccc1-c1cc(-c2cn(Cc3cccc4cc[nH]c34)nn2)nc(N)n1 ?
no (0)

Reported pIC50 reaches at least 7 for Cc1ccc2c(Cn3cc(-c4cc(-c5cccc(C#N)c5C)nc(N)n4)nn3)c[nH]c2c1 ?
yes (1)

Reported pIC50 reaches at least 7 for Cc1c(C#N)cccc1-c1cc(-c2cn(Cc3c[nH]c4ccccc34)nn2)nc(N)n1 ?
yes (1)

----------
assay-target: Adenosine receptor A2a (Homo sapiens, UniProt P29274)
Sequence (P29274 whole entry): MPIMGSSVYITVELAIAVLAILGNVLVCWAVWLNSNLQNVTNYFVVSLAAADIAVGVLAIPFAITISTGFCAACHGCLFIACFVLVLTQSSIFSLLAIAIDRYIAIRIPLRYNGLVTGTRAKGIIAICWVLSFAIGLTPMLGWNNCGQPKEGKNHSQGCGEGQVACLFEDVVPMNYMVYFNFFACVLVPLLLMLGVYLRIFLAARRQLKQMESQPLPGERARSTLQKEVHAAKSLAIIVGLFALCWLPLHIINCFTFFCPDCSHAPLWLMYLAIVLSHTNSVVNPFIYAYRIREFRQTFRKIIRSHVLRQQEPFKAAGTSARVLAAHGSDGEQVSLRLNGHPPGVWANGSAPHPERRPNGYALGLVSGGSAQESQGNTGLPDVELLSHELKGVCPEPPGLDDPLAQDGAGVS
measurement-protocol: Antagonist activity at human adenosine 2A receptor expressed in HEK293 cells co-expressing CRE-luciferase plasmid assessed as inhibition of NECA-stimulated luciferase expression preincubated with compound for 0.5 hrs followed by NECA stimulation and measured after 4 hrs by luciferase based CRE reporter assay
Type: functional, cell-based
recorded-metric: IC50
State the value with its unit after it.

Measured IC50 of Cc1c(C#N)cccc1-c1cc(-c2cn(Cc3c[nH]c4ccc(C#N)cc34)nn2)nc(N)n1 : 7.3 nM

----------
assay-target: Adenosine receptor A2b (Homo sapiens)
measurement-protocol: Antagonist activity at human adenosine 2B receptor overexpressed in HEK293 cells preincubated for 0.5 hrs followed by NECA stimulation by GloSensor cAMP assay
Format: functional, cell-based
In plain terms, low IC50, meaning strictly below 0.06 µM, gives true (1), and everything else gives false (0).

Record excerpt, results attached:
compound	assay-target	classification
Cc1c(C#N)cccc1-c1cc(-c2cn(Cc3c[nH]c4cnccc34)nn2)nc(N)n1	Adenosine receptor A2b (Homo sapiens)	true (1)
COc1ccc2[nH]cc(Cn3cc(-c4cc(-c5cccc(C#N)c5C)nc(N)n4)nn3)c2c1	Adenosine receptor A2b (Homo sapiens)	true (1)
Cc1c(C#N)cccc1-c1cc(-c2cn(Cc3c[nH]c4cccnc34)nn2)nc(N)n1	Adenosine receptor A2b (Homo sapiens)	true (1)
Cc1c(C#N)cccc1-c1cc(-c2cn(Cc3cccc(C(C)(C)O)n3)nn2)nc(N)n1 [ETRUMADENANT]	Adenosine receptor A2b (Homo sapiens)	true (1)

Is IC50 of Cc1c(C#N)cccc1-c1cc(-c2cn(Cc3c[nH]c4cccc(Cl)c34)nn2)nc(N)n1 strictly below 0.06 µM?
false (0)

Is IC50 of Cc1c(C#N)cccc1-c1cc(-c2cn(Cc3cn(C)c4ccccc34)nn2)nc(N)n1 strictly below 0.06 µM?
false (0)

Is IC50 of Cc1c(C#N)cccc1-c1cc(-c2cn(Cc3c[nH]c4cc(Cl)ccc34)nn2)nc(N)n1 strictly below 0.06 µM?
true (1)

Is IC50 of Cc1c(C#N)cccc1-c1cc(-c2cn(Cc3c[nH]c4cc(F)ccc34)nn2)nc(N)n1 strictly below 0.06 µM?
true (1)

----------
assay-target: Adenosine receptor A2b (Homo sapiens, UniProt P29275)
measurement-protocol: Antagonist activity at human adenosine 2B receptor expressed in HEK293 cells co-expressing CRE-luciferase plasmid assessed as inhibition of NECA-stimulated luciferase expression preincubated with compound for 0.5 hrs followed by NECA stimulation and measured after 4 hrs by luciferase based CRE reporter assay
Type: functional, cell-based
recorded-metric: pIC50
A value of pIC50 is the negative decimal logarithm of a concentration given in moles per litre.

Measured pIC50 of Cc1c(C#N)cccc1-c1cc(-c2cn(Cc3c[nH]c4ccc(C#N)cc34)nn2)nc(N)n1 : 8.09

----------
assay-target: Adenosine receptor A3 (Homo sapiens)
Sequence (P0DMS8 whole entry): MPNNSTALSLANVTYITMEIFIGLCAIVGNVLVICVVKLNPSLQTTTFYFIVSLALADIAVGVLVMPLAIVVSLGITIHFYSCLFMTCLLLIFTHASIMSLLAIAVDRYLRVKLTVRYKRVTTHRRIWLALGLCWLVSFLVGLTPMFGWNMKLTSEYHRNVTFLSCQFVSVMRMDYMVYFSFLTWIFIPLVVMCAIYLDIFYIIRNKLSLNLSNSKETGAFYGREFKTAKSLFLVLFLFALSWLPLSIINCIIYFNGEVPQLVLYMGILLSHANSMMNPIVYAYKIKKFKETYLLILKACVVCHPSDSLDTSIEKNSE
measurement-protocol: Antagonist activity at human Adenosine A3 receptor overexpressed in HEK293 cells preincubated for 0.5 hrs followed by NECA stimulation by GloSensor cAMP assay
recorded-metric: IC50

Entry Cc1c(C#N)cccc1-c1cc(-c2cn(Cc3c[nH]c4ccc(C#N)cc34)nn2)nc(N)n1 under Adenosine receptor A3 (Homo sapiens) had IC50 of > 1000 nM

----------
assay-target: Adenosine receptor A2b (Homo sapiens)
Sequence (P29275 whole entry): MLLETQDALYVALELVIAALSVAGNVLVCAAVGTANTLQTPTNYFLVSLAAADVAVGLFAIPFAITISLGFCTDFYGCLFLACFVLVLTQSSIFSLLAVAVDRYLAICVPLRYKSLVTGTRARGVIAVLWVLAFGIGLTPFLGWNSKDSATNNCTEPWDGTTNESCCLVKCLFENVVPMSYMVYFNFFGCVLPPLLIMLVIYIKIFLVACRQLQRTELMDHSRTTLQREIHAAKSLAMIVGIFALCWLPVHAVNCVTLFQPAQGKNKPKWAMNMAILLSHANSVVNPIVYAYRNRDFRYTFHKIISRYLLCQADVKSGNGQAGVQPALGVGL
measurement-protocol: Antagonist activity at human adenosine 2B receptor overexpressed in HEK293 cells preincubated for 0.5 hrs followed by NECA stimulation by GloSensor cAMP assay
Format: functional, cell-based
recorded-metric: pIC50
A value of pIC50 is the negative decimal logarithm of a concentration given in moles per litre.

Cc1c(C#N)cccc1-c1cc(-c2cn(Cc3cc4ccccc4[nH]3)nn2)nc(N)n1 6.18
Cc1c(C#N)cccc1-c1cc(-c2cn(Cc3csc4ccccc34)nn2)nc(N)n1 6.88
Cc1c(C#N)cccc1-c1cc(-c2cn(Cc3c[nH]c4ccc(Cl)cc34)nn2)nc(N)n1 7.34
Cc1c(C#N)cccc1-c1cc(-c2cn(Cc3c[nH]c4ccc(OC5CCCC5)cc34)nn2)nc(N)n1 6.46
COc1ccc2c(Cn3cc(-c4cc(-c5cccc(C#N)c5C)nc(N)n4)nn3)c[nH]c2c1 7.56
Cc1c(C#N)cccc1-c1cc(-c2cn(Cc3c[nH]c4ccc(F)cc34)nn2)nc(N)n1 7.84
Cc1c(C#N)cccc1-c1cc(-c2cn(Cc3n[nH]c4ccccc34)nn2)nc(N)n1 7.38
Cc1c(C#N)cccc1-c1cc(-c2cn(Cc3csc4c3CCCC4)nn2)nc(N)n1 7.00

Now consider the entry below.
Measured pIC50 of Cc1c(C#N)cccc1-c1cc(-c2cn(Cc3c[nH]c4ncccc34)nn2)nc(N)n1 : 6.67
